Here the recorded oedema % inhibition is given for each entry.
Tested on: carrageenin-induced oedema
Assay: carrageenin-induced oedema test (anti-inflammatory activity)
Type: in vivo, albino male Wistar rats
Conditions: 25 mg/Kg, Table IV (route not given), 6 h
Method: This effect was evaluated by means of an experimental model reproducing acute inflammation: for this purpose the carrageenin- induced oedema test was employed following the method described by C. Albino male Wistar rats weighing 140-160 g were caged for 10 days at 22±1° C. and given a balanced diet and water ad libitum. Eighteen hours before the experiment the animals were randomized into groups of ten and fasted but with free access to water. Each dose was tested in three groups of rats. […]
Lab book: enter the figure in %, no units written.

CCOC(=O)c1ccc(NC(=O)Cc2ccc(C(=O)c3ccc(C)cc3)n2C)cc1 : 29.0

Consider the record given below.
Result for Cc1ccc(C(=O)c2ccc(CC(=O)NCC(=O)O)n2C)cc1 , tested on carrageenin-induced oedema, oedema % inhibition: 45.0

###

Tested on: mucus secreted by the respiratory airway
Experiment: antisecretory activity, respiratory mucus secretion
Assay type: in vivo, albino male New Zealand rabbits
Conditions: 75 mg/Kg i.p., 6 h, vs control group
MEASUREMENT_KIND: % difference in mucus secretion (%)
Lab book: enter the figure in %, no units written.

CCOC(=O)c1ccc(NC(=O)Cc2ccc(C(=O)c3ccc(C)cc3)n2C)cc1 : -20
COc1ccccc1OC(=O)CNC(=O)Cc1ccc(C(=O)c2ccc(C)cc2)n1C : -15
Cc1ccc(C(=O)c2ccc(CC(=O)N3CCOCC3)n2C)cc1 : -18
Cc1ccc(C(=O)c2ccc(CC(=O)N3CCN(C)CC3)n2C)cc1 : -22

Consider the record given below.
Record summary for Cc1ccc(C(=O)c2ccc(CC(=O)NCC(=O)O)n2C)cc1 : reported % difference in mucus secretion = -7

###

Tested on: carrageenin-induced oedema
Experiment: carrageenin-induced oedema test (anti-inflammatory activity)
Assay type: in vivo, albino male Wistar rats
Details: 50 mg/Kg, Table IV (route not given), 48 h
Here the recorded oedema % inhibition is given for each entry.
Lab book: enter the figure in %, no units written.

Some solved entries appear below for comparison.
COc1ccccc1OC(=O)CNC(=O)Cc1ccc(C(=O)c2ccc(C)cc2)n1C [Compound 1-d] : 20.8
Cc1ccc(C(=O)c2ccc(CC(=O)N3CCN(C)CC3)n2C)cc1 [Compound 3-b] : 0.0
Cc1ccc(C(=O)c2ccc(CC(=O)NCC(=O)O)n2C)cc1 [Compound 1-c] : 8.0
Cc1ccc(C(=O)c2ccc(CC(=O)O)n2C)cc1 [Tolmetin Na.2H2 O, reference compound] : 0.0
CCOC(=O)c1ccc(NC(=O)Cc2ccc(C(=O)c3ccc(C)cc3)n2C)cc1 [Compound 1-h] : 0.0

Result for Cc1ccc(C(=O)c2ccc(CC(=O)NNCC(=O)N3CCN(C)CC3)n2C)cc1 [Compound 1-o] , tested on carrageenin-induced oedema, oedema % inhibition: 0.0

Result for Cc1ccc(C(=O)c2ccc(CC(=O)N3CCOCC3)n2C)cc1 [Compound 3-a] , tested on carrageenin-induced oedema, oedema % inhibition: 0.0

###

Test system: gastric lesions
Assay type: in vivo, male Wistar rats
Settings: 200 mg/Kg orally, 4 consecutive days; I=mean no. of lesions+mean of severity+% incidence/10
MEASUREMENT_KIND: gastric damage index
Write the number on its own, no unit after it.

Some solved entries appear below for comparison.
Cc1ccc(C(=O)c2ccc(CC(=O)N3CCOCC3)n2C)cc1 [Compound 3-a] : 12.5
CCOC(=O)c1ccc(NC(=O)Cc2ccc(C(=O)c3ccc(C)cc3)n2C)cc1 [Compound 1-h] : 11.5
COc1ccccc1OC(=O)CNC(=O)Cc1ccc(C(=O)c2ccc(C)cc2)n1C [Compound 1-d] : 13

Consider the record given below.
Record summary for Cc1ccc(C(=O)c2ccc(CC(=O)NCC(=O)O)n2C)cc1 [Compound 1-c] : reported gastric damage index = 13.5
